Here the recorded inhibition is given for each entry.
- SYSTEM: Protein Mdm4 (Homo sapiens) + E3 ubiquitin-protein ligase Mdm2 (Homo sapiens) (UniProt O15151+Q00987)
- Sequence (O15151 whole entry, looked up): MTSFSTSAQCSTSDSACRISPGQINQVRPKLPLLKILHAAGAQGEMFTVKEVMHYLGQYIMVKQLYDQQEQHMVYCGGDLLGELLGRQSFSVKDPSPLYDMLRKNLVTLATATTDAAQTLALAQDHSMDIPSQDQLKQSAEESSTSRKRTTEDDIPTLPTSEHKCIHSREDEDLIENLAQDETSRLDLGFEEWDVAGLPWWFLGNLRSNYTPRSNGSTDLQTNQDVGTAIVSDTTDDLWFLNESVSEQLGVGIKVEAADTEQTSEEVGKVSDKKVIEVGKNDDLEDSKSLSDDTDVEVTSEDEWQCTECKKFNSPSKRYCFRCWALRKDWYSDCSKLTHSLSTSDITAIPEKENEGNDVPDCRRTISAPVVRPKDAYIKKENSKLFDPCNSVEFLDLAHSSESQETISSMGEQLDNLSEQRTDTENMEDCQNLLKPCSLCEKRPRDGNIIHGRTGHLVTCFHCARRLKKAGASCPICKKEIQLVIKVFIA
- Sequence (Q00987 whole entry, looked up): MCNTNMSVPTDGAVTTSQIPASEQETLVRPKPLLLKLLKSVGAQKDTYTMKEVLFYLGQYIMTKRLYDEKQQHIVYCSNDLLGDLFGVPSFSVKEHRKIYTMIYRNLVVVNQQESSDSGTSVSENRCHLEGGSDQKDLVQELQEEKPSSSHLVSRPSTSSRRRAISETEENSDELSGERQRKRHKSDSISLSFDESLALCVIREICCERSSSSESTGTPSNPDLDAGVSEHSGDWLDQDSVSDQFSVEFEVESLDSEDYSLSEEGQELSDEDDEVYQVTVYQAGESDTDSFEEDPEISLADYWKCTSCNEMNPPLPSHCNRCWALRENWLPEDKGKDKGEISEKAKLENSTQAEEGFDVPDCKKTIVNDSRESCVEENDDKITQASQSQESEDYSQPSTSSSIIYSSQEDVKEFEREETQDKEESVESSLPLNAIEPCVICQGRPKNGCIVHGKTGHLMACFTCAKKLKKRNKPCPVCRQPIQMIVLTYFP
- PROTOCOL DESCRIPTION: Mdm2-MdmX complex disruptors, retested hits, confirmation, luminescence, single concentration (AID 489028)
- MEASUREMENT CONTEXT: Mdm2-MdmX binding, luminescent assay; at 8 µM; hits give high values
The whole screen tested about 10,000 compounds, of which about 5,600 (56%) were called active. So high a share suggests a set chosen from earlier hits. A selection follows.

- MOLECULE: "COc1ccccc1-n1nnnc1S(=O)(=O)Cc1ccc(Cl)cc1"
  MEASUREMENT UNITS: "%"
  inhibition: 74.9
- MOLECULE: "Cc1cc(C)c2[nH]c(=O)c(CN(Cc3ccccc3)C(=S)NCCCN(C)C)cc2c1"
  MEASUREMENT UNITS: "%"
  inhibition: 37
- MOLECULE: "CC(C)Cc1nc(Nc2ccc(S(=O)(=O)N3CCCC3)cc2)c2nnn(Cc3ccccc3)c2n1"
  MEASUREMENT UNITS: "%"
  inhibition: 36.1
- MOLECULE: "CC(=O)c1ccc(Oc2cc(C)nc(-n3nc(C)cc3C)n2)cc1"
  MEASUREMENT UNITS: "%"
  inhibition: 51.8
- MOLECULE: "C=CCn1c(SCc2c(C)noc2C)nc2sc3c(c2c1=O)CCC(C)C3 (stereo not drawn)"
  MEASUREMENT UNITS: "%"
  inhibition: 57.9
- MOLECULE: "O=C1/C(=C/c2ccc(F)cc2)SC(=S)N1CCCC(=O)N1CCCCC1CCO (stereo not drawn)"
  MEASUREMENT UNITS: "%"
  inhibition: 49.8
- MOLECULE: "CCn1cc(CN2CCC(C(=O)Nc3cccc(-c4cccc(Cl)c4)c3)CC2)c(C)n1"
  MEASUREMENT UNITS: "%"
  inhibition: 48
- MOLECULE: "Cc1c(C(=O)N/N=C/c2ccccc2)[nH]c2c([N+](=O)[O-])cccc12"
  MEASUREMENT UNITS: "%"
  inhibition: 62.2
- MOLECULE: "Brc1ccc2ncnc(NCc3cccnc3)c2c1"
  MEASUREMENT UNITS: "%"
  inhibition: 68.7
- MOLECULE: "CCCCNC(=O)C(C)N(CCN(C)C)C(=O)CCCN1C(=O)NC(c2ccc(Cl)cc2)C(C(=O)OCc2ccccc2)=C1C (stereo not drawn)"
  MEASUREMENT UNITS: "%"
  inhibition: 15.1
- MOLECULE: "Nc1nonc1-c1nc2ccccc2n1Cc1ccc(F)cc1"
  MEASUREMENT UNITS: "%"
  inhibition: 63.5
- MOLECULE: "COc1ccc(C(=O)NC(=S)NNC(=O)CCc2ccccc2)cc1"
  MEASUREMENT UNITS: "%"
  inhibition: 4.55
- MOLECULE: "CCN1C(=O)c2cccc3c(S(=O)(=O)Nc4ccccc4O)ccc1c23"
  MEASUREMENT UNITS: "%"
  inhibition: 39
- MOLECULE: "c1ccc2c(c1)C(=NC1CCCCC1)NC2=NC1CCCCC1"
  MEASUREMENT UNITS: "%"
  inhibition: 53.5
- MOLECULE: "N#Cc1cccc(NC(=O)COC(=O)c2ccccc2C(=O)c2ccc(Cl)c([N+](=O)[O-])c2)c1"
  MEASUREMENT UNITS: "%"
  inhibition: 98.9
- MOLECULE: "COc1cccc2sc(NNC(=O)c3nc4ccccc4s3)nc12"
  MEASUREMENT UNITS: "%"
  inhibition: 45.7
- MOLECULE: "CCc1ccc(-c2cc3c(=O)n(CC(=O)NCCCN4CCN(Cc5ccccc5)CC4)nc(C)n3n2)cc1"
  MEASUREMENT UNITS: "%"
  inhibition: 55.5
- MOLECULE: "O=C(NCc1ccccc1)C1=C[C@@H](C2CCCCC2)C[C@@H](OCc2ccc(CO)cc2)O1"
  MEASUREMENT UNITS: "%"
  inhibition: 32.2
- MOLECULE: "COc1ccc(NC(=O)c2cc(-c3cc(OC)c(OC)c(OC)c3)nc3ccccc23)c(OC)c1"
  MEASUREMENT UNITS: "%"
  inhibition: 57
- MOLECULE: "Cc1c(CN2CCC(CO)(CCOc3ccccc3)CC2)[nH]c2ccc(Cl)cc12"
  MEASUREMENT UNITS: "%"
  inhibition: 75.5
- MOLECULE: "CCCOc1ccccc1C1CC(=O)Nc2cc3c(cc21)OCO3 (stereo not drawn)"
  MEASUREMENT UNITS: "%"
  inhibition: 61.9
- MOLECULE: "CCCCCCc1cc2cc(-c3nnc(-c4ccccc4)o3)c(=O)oc2cc1O"
  MEASUREMENT UNITS: "%"
  inhibition: 0.95
- MOLECULE: "O=C(/C=C/c1ccc(Cl)c([N+](=O)[O-])c1)c1ccc(O)cc1"
  MEASUREMENT UNITS: "%"
  inhibition: 85.4
- MOLECULE: "COc1cccc(-c2sc3ccc(OC)cc3c2-c2ccc(OCCN3CCCCC3)cc2)c1"
  MEASUREMENT UNITS: "%"
  inhibition: 49.5
- MOLECULE: "CN(C)c1ccc(-n2cccc2/C=C2/SC(=Nc3ccc(F)cc3)NC2=O)cc1"
  MEASUREMENT UNITS: "%"
  inhibition: 12.6
- MOLECULE: "Cc1[nH]c(=O)c(C(=O)/C=C/c2ccccc2)c2c1CCCC2"
  MEASUREMENT UNITS: "%"
  inhibition: 99.5
- MOLECULE: "O=C(/C=C/c1ccc(Cl)c([N+](=O)[O-])c1)c1cccnc1"
  MEASUREMENT UNITS: "%"
  inhibition: 66.7
- MOLECULE: "COc1ccccc1C1C2=C(COC2=O)Nc2cc3c(cc21)OCO3 (stereo not drawn)"
  MEASUREMENT UNITS: "%"
  inhibition: 62.8
- MOLECULE: "O=C(c1ccc(Cl)cc1)N1N=C(c2ccccn2)CC1(O)C(F)(F)F (stereo not drawn)"
  MEASUREMENT UNITS: "%"
  inhibition: 15.9
- MOLECULE: "CC12CCC(C(=O)N(NC(=O)c3ccccc3O)C1=O)C2(C)C (stereo not drawn)"
  MEASUREMENT UNITS: "%"
  inhibition: 11.2
- MOLECULE: "O=C(Nc1cccc(-c2cccc(Cl)c2)c1)C1CCN(C2CCC2)CC1"
  MEASUREMENT UNITS: "%"
  inhibition: 31.5
- MOLECULE: "COc1ccc(OC)c(NC(=O)c2sc3nc(C)cc(C)c3c2N)c1"
  MEASUREMENT UNITS: "%"
  inhibition: 15.5
- MOLECULE: "CCCCNC(=O)C(C)N(CCN(C)C)C(=O)CCCCCN1C(=O)NC(c2ccc(Cl)cc2)C(C(=O)OCc2ccccc2)=C1C (stereo not drawn)"
  MEASUREMENT UNITS: "%"
  inhibition: 49.5
- MOLECULE: "CC(C)(C)CC(C)(C)NCC(O)COCCOc1ccc(Br)cc1 (stereo not drawn)"
  MEASUREMENT UNITS: "%"
  inhibition: 51.1
- MOLECULE: "O=C(Nc1ccncc1)c1c(F)cccc1F"
  MEASUREMENT UNITS: "%"
  inhibition: 61.9
- MOLECULE: "CCN(CCCNC(=O)CSc1cc(=O)n(C)c2cc(Cl)ccc12)Cc1ccccc1"
  MEASUREMENT UNITS: "%"
  inhibition: 19.6
- MOLECULE: "CCOc1ccc(-c2cc(C(=O)N/N=C/c3ccc(O)cc3)c3ccccc3n2)cc1"
  MEASUREMENT UNITS: "%"
  inhibition: 76.8
- MOLECULE: "COc1cc(SC)ccc1C(=O)Nc1nc(C)cs1"
  MEASUREMENT UNITS: "%"
  inhibition: 57.5
- MOLECULE: "O=C1NC(Nc2nc3ccccc3s2)(C(F)(F)F)C(=O)N1C1CCCCC1 (stereo not drawn)"
  MEASUREMENT UNITS: "%"
  inhibition: 62.5
- MOLECULE: "Oc1ccccc1N1CCN(c2ncnc3sc(-c4ccccc4)cc23)CC1"
  MEASUREMENT UNITS: "%"
  inhibition: 58
- MOLECULE: "Cc1cc2oc3ccc(NCCC4CCCN4C)cc3c(=O)c2cc1C (stereo not drawn)"
  MEASUREMENT UNITS: "%"
  inhibition: 1.8
- MOLECULE: "O=C(Nc1nnc(-c2ccccc2)o1)c1cc(-c2cccs2)nc2ccccc12"
  MEASUREMENT UNITS: "%"
  inhibition: 29.7
- MOLECULE: "COc1ccc(C(=O)/C=C/c2cccnc2)c(OC)c1"
  MEASUREMENT UNITS: "%"
  inhibition: -4.6
